- measured_on: human androgen receptor (hAR) (Homo sapiens, UniProt P10275)
- Sequence (P10275 whole entry): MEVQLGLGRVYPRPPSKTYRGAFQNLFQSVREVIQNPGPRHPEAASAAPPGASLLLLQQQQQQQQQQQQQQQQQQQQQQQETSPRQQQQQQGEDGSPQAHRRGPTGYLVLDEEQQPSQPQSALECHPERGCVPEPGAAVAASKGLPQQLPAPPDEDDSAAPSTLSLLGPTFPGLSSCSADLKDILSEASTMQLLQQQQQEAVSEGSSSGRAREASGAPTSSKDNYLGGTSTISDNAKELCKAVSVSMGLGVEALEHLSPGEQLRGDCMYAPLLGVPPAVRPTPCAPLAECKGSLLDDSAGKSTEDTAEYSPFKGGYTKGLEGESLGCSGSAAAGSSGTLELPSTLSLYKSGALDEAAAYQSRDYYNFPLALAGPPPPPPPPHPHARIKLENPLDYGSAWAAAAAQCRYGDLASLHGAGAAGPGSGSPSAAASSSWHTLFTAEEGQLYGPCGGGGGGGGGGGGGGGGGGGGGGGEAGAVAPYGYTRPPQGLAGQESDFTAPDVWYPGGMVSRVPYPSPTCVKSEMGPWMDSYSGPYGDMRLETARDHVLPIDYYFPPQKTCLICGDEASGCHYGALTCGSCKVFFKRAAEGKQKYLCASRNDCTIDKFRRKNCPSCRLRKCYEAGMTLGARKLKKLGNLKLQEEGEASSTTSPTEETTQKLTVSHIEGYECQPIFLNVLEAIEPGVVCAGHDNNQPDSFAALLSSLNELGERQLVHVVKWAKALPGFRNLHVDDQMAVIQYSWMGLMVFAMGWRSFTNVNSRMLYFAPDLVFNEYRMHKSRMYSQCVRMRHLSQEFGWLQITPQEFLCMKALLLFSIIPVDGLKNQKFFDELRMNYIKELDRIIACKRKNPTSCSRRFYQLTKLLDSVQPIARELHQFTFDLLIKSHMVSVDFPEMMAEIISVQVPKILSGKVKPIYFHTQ
- method_notes: Mechanism of AR inhibition: testosterone dose-response curves in presence of test chemical, luciferase reporter, MDA-kb2 cells
- Format: cell-based
- experimental_setup: highest noncytotoxic concentration: 15 μM NON, HEP, OCT, NNN; 1 μM FLO; 0.05 μM OHF
reported_endpoint: effect on dose response curve of testosterone

Query: Find the recorded effect on dose response curve of testosterone belonging to `FC(F)(F)C(F)(F)C(F)(F)c1nc2ccccc2nc1-c1ccccc1` and report it.
Reply: rightward parallel shift

Query: Find the recorded effect on dose response curve of testosterone belonging to `O=c1cc(C(F)(F)C(F)(F)C(F)(F)C(F)(F)F)c2cc3c4c(c2o1)CCCN4CCC3` and report it.
Reply: rightward parallel shift

Query: Find the recorded effect on dose response curve of testosterone belonging to `O=C(Nc1ccc([N+](=O)[O-])cc1)C(F)(F)C(F)(F)C(F)(F)C(F)(F)F` and report it.
Reply: rightward parallel shift
